Method Description: Clearance in Beagle dog at 1 mg/kg, iv
Format: ADME, organism-based, Canis lupus familiaris
Condition Description: in vivo
Readout Name: clearance (mL/min/kg)
Numbers only; they are read as mL/min/kg.

Qu. Query (molecule): `Cc1cccc2ccc(N3CC[C@H](C(=O)N[C@H]4CCO[C@H](CO)C4)C(C)(C)C3)nc12` ; field requested: clearance
Ans. 3.62

* * *

Target Or Test System: Prostaglandin E synthase (Canis lupus familiaris, UniProt A0SYQ0)
Sequence (A0SYQ0 whole entry): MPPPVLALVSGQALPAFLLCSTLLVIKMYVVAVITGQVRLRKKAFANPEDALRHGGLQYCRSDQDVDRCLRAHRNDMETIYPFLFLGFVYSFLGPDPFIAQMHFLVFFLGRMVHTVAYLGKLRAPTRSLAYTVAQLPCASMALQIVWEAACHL
Method Description: Inhibition of dog mPGES-1
Readout Name: IC50 (nM)
Numbers only; they are read as nM.

Qu. Query (molecule): `Cc1cccc2ccc(N3CC[C@H](C(=O)N[C@H]4CCO[C@H](CO)C4)C(C)(C)C3)nc12` ; field requested: IC50
Ans. 11
